Hello, the source for this data is BigSolDB 2.1, in case you need it.

- conditions.used: in methyl acetate, 308.29 K
measurement.kind: solubility (mole fraction)
Form: value (number only, do not type unit).

Name the recorded solubility (mole fraction) for c1nc[nH]n1 .
0.155

---

- conditions.used: in n-propanol, 343.29 K
measurement.kind: solubility (mole fraction)
Form: value (number only, do not type unit).

Name the recorded solubility (mole fraction) for c1nc[nH]n1 .
0.415

---

- conditions.used: in ethanol, 298.18 K
measurement.kind: solubility (mole fraction)

Name the recorded solubility (mole fraction) for c1nc[nH]n1 .
0.184

---

- conditions.used: in propylene glycol, 323.21 K
measurement.kind: solubility (mole fraction)

Name the recorded solubility (mole fraction) for c1nc[nH]n1 .
0.451
